Origin of measurements: patent US20240400689A1

target: T1, Macaca fascicularis CD276 (Macaca fascicularis); assay: FACS on CHO-S-cynoCD276 cells
T1 construct: whole, on cells; also called cynomolgus monkey CD276; cynoCD276
measure: FACS MFI
Number only, no unit.

stdin: Entry 30-E2-G7-G7 (antibody, V domains shown, mouse monoclonal antibody (hybridoma)) VH: EVQLQESGGGLVKPGGSLKLSCAASGFTFSYYAMSWVRQTPEKRLEWVATINGDGSHTYYPDSVRGRFTISRDNAKNTLYLQVSSLRSEDTAMYYCASLLQLGPFWGQGTTLTVSS VL: DIVMTQSQKFMSTSVGDRVSVTCKASQNVGTNVAWYHQRPGQSPKPLIYSASYRYSGVPDRFTGSGSGTDFTLTISNVQSEDLAEYFCQQYNNYPLTFGSGTKLEIK has what FACS MFI?
stdout: 35100

stdin: Quick one: FACS MFI of 9-B9-H11-G7 (antibody, V domains shown, mouse monoclonal antibody (hybridoma)) VH: DVQLQESGPGLVKPSQSLSLTCSVTGYSITSGYYWNWIRQFPGNKLEWMVYISYDGTNNYNPSLKNRISITRDTSKNQFFLKLNSVTTEDTATYYCARGDSNSYYFDYWGQGTTLTVSS VL: QAVVTQESALTTSPGGTVILTCRSSTGAVTTSNYANWVQEKPDHLFTGLIGGTSNRAPGVPVRFSGSLIGDKAALTITGAQTEDDAMYFCALWYRTHYVFGGGTKVTVL ?
stdout: 146000

stdin: What does the data say about its FACS MFI? Entry: 8-C3-E3-F3 (antibody, V domains shown, mouse monoclonal antibody (hybridoma)) VH: EVQLVESGGGLVQPGGSLKLSCAASGFTFSNYGLSWVRLTPDKRLEVVATIGSYGGNTYYPDSVKGRFTISRDNAKNTLYLQMSSLKSEDTAIYYCARDIYYGNSEAWFAYWGQGTLVTVSA VL: DIVMTQAAFSNPVTLGTSASISCRSSKSLLHSNGITYLYWYLQKPGQSPQLLIYQMSNLASGVPDRFSSSGSETDFTLRISRVEAEDVGVYYCAQNLELPWTFGGGTKLEIK
stdout: 12100
